# procedure-details: recombinant barcode read abundance after kanamycin selection (control-corrected) (log10(CPM+1)); higher = more efficient recombination; sequences stand for … in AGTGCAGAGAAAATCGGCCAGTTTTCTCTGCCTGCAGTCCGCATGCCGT…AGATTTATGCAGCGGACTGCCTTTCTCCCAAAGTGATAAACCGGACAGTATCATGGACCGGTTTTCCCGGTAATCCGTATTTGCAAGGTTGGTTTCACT; site = the 11-nt target;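 also: IS621 recombinase and bridge RNA in Escherichia coli cells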
# recombinant barcode read abundance (log10) listing for each entry below
Give only the figure.

# example entries with known answers
# sequence-data, data-value
rows = [
    ("CAAAGCCCTTGGGTTCTAACCTGTTGCCT (site CAAAGCCCTAG)", 1.9),
    ("CCTCAGGCTTGGGTTCTAACCTGTTGCCC (site CCTCAGGCTAG)", 0.0156),
    ("ATCCAGCCTTGGGTTCTAACCTGTTGCCT (site ATCCACCCTAG)", 0.0824),
    ("GGTTCACCTTGGGTTCTAACCTGTTGCAG (site GGTTCACCTCT)", 1.05),
    ("GGGTCGGCTTGGGTTCTAACCTGTTGCGT (site GGGTCGGCTAC)", 2.68),
]

## Input State its recombinant barcode read abundance (log10) for this sequence: CTAAGAACTTGGGTTCTAACCTGTTGCAT (site CTAAGAACTAC)
## Output 0.0166

## Input State its recombinant barcode read abundance (log10) for this sequence: ATACAATCTTGGGTTCTAACCTGTTGCCT (site GTACAATCTAG)
## Output 0.0425

## Input State its recombinant barcode read abundance (log10) for this sequence: CAACTTCCTTGGGTTCTAACCTGTTGCGT (site CAACTTCCTAC)
## Output 1.18

## Input State its recombinant barcode read abundance (log10) for this sequence: GCACGACCTTGGGTTCTAACCTGTTGCCT (site GCACGACCTAG)
## Output 1.56

## Input State its recombinant barcode read abundance (log10) for this sequence: ATCGCTCCTTGGGTTCTAACCTGTTGCCT (site AACGCTCCTAG)
## Output 0.128
